Origin of measurements: the supplement of paper PMC8728848

Molecular target: GlcNAc(b1-4)GlcNAc(b1-4)GlcNAc(b1-4)GlcNAc(b1-4)GlcNAc(b1-4)GlcNAc
Experiment: glycan array binding signal (z-score within array); higher = stronger binding
Conditions: glycan notation: IUPAC condensed, linker removed
Many of the other results were omitted from the sample, so the strongest signals are more common in it than they were.
Decision: glycan array binding signal (z-score) >= -0.2 yields yes, all other cases yield no.

binder | assigned_label
AAA (Anguilla anguilla), Q7SIC1 (protein) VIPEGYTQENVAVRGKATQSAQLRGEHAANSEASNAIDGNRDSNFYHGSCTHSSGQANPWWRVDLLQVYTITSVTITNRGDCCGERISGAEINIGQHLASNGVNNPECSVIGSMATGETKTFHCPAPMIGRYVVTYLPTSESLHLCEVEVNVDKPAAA | yes

Record MPA (Maclura pomifera), P18674 (protein) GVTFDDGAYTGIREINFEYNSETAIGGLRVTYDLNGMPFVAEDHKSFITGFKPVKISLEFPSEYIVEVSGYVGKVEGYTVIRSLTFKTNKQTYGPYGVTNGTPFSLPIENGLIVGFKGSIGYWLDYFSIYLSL ; criterion: glycan array binding signal (z-score) no lower than -0.2. Met?
yes
